tested on: Enzyme of the genus Aspergillus (glycerol oxidase); experiment: Inhibition of enzyme activity by 1 mM inhibitors (4-AA method); format: biochemical, Aspergillus japonicus KY-45; parameters: key: % of activity without inhibitor (no inhibitor = 100); details: 1 mM inhibitor; Enzyme of the genus Aspergillus; 4-AA method
Returns one of Yes or No; Yes when Enzyme activity on adding inhibitor (activity with no inhibitor defined as 100) is >= 20.

Study these solved cases before continuing.
*Q* Tell me whether Enzyme activity on adding inhibitor (activity with no inhibitor defined as 100) is at least 20 here: `O=S(=O)([O-])[O-].[Cu+2]`
*A* No

*Q* Quick one: `c1ccc(-c2ccccn2)nc1`
*A* Yes

*Q* Quick one: Cl.NO [NH2 OH--HCl]
*A* No

---
*Q* Tell me whether Enzyme activity on adding inhibitor (activity with no inhibitor defined as 100) is at least 20 here: O[C@H](CS)[C@H](O)CS (racemic)
*A* Yes

*Q* Quick one: CCN1C(=O)C=CC1=O [N-ethylmaleimide]
*A* Yes

*Q* Quick one: `c1cnc2c(c1)ccc1cccnc12`
*A* Yes

*Q* Quick one: O=C(O)c1cc[c]([Hg][Cl])cc1 [PCMB, p-chloromercuribenzoate]
*A* Yes

*Q* Quick one: `O=[N+]([O-])[O-].[Ag+]`
*A* Yes

*Q* Quick one: `CC(=O)[O-].CC(=O)[O-].[Pb+2]`
*A* No

*Q* Quick one: `Cc1ccc2ccc3ccc(C)nc3c2n1`
*A* Yes

----------
tested on: Enzyme of the genus Neurospora (glycerol oxidase); test: Substrate specificity, relative activity by 4-AA method; type: biochemical, Neurospora crassa KY-462; details: substrate equimolar to glycerol
What Relative activity on substrate (activity on glycerol defined as 100) was measured for each of the following?
Numbers only.

*Q* Reported Relative activity on substrate (activity on glycerol defined as 100) for O=P(O)(O)OCC(O)CO (stereo not shown) : what is it?
*A* 21

*Q* Quick one: CC(O)CO (stereo not shown)
*A* 0

*Q* Quick one: `CCCO`
*A* 0

*Q* Quick one: CC(O)C(C)O (stereo not shown)
*A* 0

*Q* Quick one: `CC(C)O`
*A* 0

// batch mode: one Relative activity on substrate (activity on glycerol defined as 100) value per listed entry
1. CCO
2. OCC(O)CO
3. CC(O)CCO (stereo not shown)
4. OCCCO
5. OCCCCO

*A*
1. 0
2. 100
3. 0
4. 0
5. 0

----------
system: Enzyme of the genus Aspergillus (glycerol oxidase); assay: Substrate specificity, relative activity by 4-AA method; assay type: biochemical, Aspergillus japonicus KY-45; details: substrate equimolar to glycerol
value_type: Relative activity on substrate (activity on glycerol defined as 100)

Would you please look over these solved cases?
*Q* Reported Relative activity on substrate (activity on glycerol defined as 100) for `CCCO` : what is it?
*A* 0

*Q* Quick one: `CC(C)O`
*A* 0

*Q* Quick one: `CCO`
*A* 0

*Q* Quick one: CC(O)C(C)O (stereo not shown)
*A* 0.3

*Q* Quick one: CC(O)CO (stereo not shown)
*A* 10.5

// batch mode: one Relative activity on substrate (activity on glycerol defined as 100) value per listed entry
1. OCCCCO
2. CC(O)CCO (stereo not shown)
3. O=P(O)(O)OCC(O)CO (stereo not shown)
4. OCCCO
5. OCC(O)CO

*A*
[0.3, 2.0, 0.4, 3.3, 100]
